- Experiment Description: NIH-3T3 fibroblast cytotoxicity, dose response, cytotoxicity control, cell-based, fluorescence, Alamar Blue, secondary assay (AID 2327);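 further: NIH-3T3 mouse fibroblasts cultured with fluconazole at 8 µg/mL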
- Type: functional
Calls of active or inactive are those of the source. No stated cut-off is given here; in the data, actives have a measured EC50 and inactives only a lower limit.
// classify into label 1 = active, label 0 = inactive

Hi, do you know how `CCCCCCCNC(=O)COc1ccc2c(c1)C(=O)CC(C)(C)O2` came out in this test?
label 0

Also need `Cc1cc(Br)ccc1OCC(=O)NNC(=O)C(=O)Nc1ccccc1` , thanks.
label 0

Also need `O=c1c2ccc(Cl)cc2nc(-c2ccc([N+](=O)[O-])cc2)n1O` , thanks.
label 1

Also need `O=C(c1cc2c(s1)-c1ccccc1OC2)N1CCC2(CC1)OCCO2` , thanks.
label 1

###

- Tested System: Zinc finger protein mex-5 (Caenorhabditis elegans)
- Sequence (Q9XUB2 whole entry): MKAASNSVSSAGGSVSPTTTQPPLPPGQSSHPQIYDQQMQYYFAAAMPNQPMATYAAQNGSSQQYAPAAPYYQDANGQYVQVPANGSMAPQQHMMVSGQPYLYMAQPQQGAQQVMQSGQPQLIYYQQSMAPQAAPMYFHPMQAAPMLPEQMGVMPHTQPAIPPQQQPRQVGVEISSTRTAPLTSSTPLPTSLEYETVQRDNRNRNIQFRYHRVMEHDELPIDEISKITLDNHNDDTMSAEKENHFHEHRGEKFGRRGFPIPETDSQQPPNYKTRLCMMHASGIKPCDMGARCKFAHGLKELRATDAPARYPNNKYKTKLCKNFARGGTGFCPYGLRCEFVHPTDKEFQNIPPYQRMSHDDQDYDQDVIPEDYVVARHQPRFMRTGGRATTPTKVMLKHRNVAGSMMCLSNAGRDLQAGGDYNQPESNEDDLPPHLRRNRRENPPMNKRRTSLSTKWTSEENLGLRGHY
- Experiment Description: potency of MEX-5 RNA-binding blockers – biochemical, C. elegans, fluorescence polarization, dose response (AID 1960)
Activity calls are given as the source filed them. Rule as the data show it: actives have a measured EC50 and inactives only a lower limit.
Result Type: EC50

Quick check: EC50 of CCCCC1=CC2=C(c3ccco3)C(=O)C(C)(OC(=O)c3ccc(OC)cc3)C(=O)C2=CN1CCN1CCOCC1 (stereo not drawn) ?
42.2 µM (active)

Also need COc1ccc(/C=C(\C#N)C(=O)NCC2CCCO2)cc1OC (stereo not drawn) , thanks.
> 300 µM (not active)

Also need `Cc1cc(/C=C2\C(=O)NC(=O)N(c3ccc(F)cc3)C2=O)c(C)n1-c1ccc(C(=O)O)cc1` , thanks.
> 300 µM (not active)

Also need CC1C2(C)OC(=N)C(C#N)(C(C)O2)C1(C#N)C#N (stereo not drawn) , thanks.
16 µM (active)

Also need O=C(C1=NN(c2ccccc2)C2C(=O)N(c3ccccc3Cl)C(=O)C12)c1ccccc1 (stereo not drawn) , thanks.
> 300 µM (inconclusive)

Also need `CCc1ccc(/C=C2/SC(=S)N(CCC(=O)Nc3cccnc3)C2=O)cc1` , thanks.
> 300 µM (inconclusive)

Also need `Nc1ccc(Nc2ccccc2)c(S(=O)(=O)O)c1` , thanks.
34 µM (active)

Also need `Cc1ccc(Cl)c2c(C3=NC(=S)NC3=O)c(O)[nH]c12` , thanks.
0.294 µM (inconclusive)

###

- Tested System: UniProtKB P38532
- Sequence (P38532 whole entry): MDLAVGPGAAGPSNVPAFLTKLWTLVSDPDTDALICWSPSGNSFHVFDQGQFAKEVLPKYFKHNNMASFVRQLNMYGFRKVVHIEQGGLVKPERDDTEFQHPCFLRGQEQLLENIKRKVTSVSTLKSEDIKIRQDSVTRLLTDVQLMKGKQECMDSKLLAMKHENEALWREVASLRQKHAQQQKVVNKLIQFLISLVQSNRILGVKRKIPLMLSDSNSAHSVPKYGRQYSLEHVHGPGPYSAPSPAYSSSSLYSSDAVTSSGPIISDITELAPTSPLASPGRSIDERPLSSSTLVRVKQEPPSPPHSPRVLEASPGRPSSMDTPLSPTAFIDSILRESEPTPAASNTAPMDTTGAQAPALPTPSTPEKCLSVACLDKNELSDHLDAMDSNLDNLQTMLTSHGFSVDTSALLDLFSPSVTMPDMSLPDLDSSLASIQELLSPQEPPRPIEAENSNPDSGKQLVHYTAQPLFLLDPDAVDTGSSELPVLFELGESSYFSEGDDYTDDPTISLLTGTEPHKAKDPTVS
- Experiment Description: decrease of HSF1-responsive luciferase luminescence – cell-based, NIH3T3, dose retest, confirmation (AID 2382);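 further: NIH3T3 fibroblasts with HSF1-driven luciferase reporter stressed by proteasome inhibitor MG132; luminescence from HSF1-driven luciferase expression after 8 hours of MG132 stress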
- Assay type: functional
Active and inactive are the calls of the source. No stated cut-off is given here; in the data, actives have a measured EC50 and inactives only a lower limit.
Could you please report measured EC50 for the items listed next?

Quick check: EC50 of `CC(C)c1nc(SCc2c(F)cccc2Cl)c2c(=O)n(C)c(=O)n(C)c2n1` ?
> 195 µM (not active)

Also need CCCC(C)NC(=O)C1c2ccccc2Oc2ccccc21 (stereo unspecified) , thanks.
> 195 µM (not active)

Also need COc1ccc(N2CC(C(=O)Nc3nnc(C4CCCCC4)s3)CC2=O)cc1 (stereo unspecified) , thanks.
> 195 µM (not active)

Also need `O=c1cc(-c2ccccc2)c2ccc(O)cc2o1` , thanks.
117 µM (active)

Also need CCC(Sc1nc2cc(OC)c(OC)cc2c(=O)n1CCc1ccc(S(N)(=O)=O)cc1)C(=O)NCCOC (stereo unspecified) , thanks.
> 195 µM (not active)

Also need `CCc1ccccc1NC(=O)CSc1nnc(-c2ccncc2)o1` , thanks.
> 195 µM (not active)

Also need `O=[N+]([O-])c1ccc(/N=C/c2sc3ccccc3c2O)cc1` , thanks.
> 195 µM (not active)

Also need `COC(=O)c1c[nH]nc1N=C(S)Nc1ccc(Cl)c(Cl)c1` , thanks.
0.249 µM (active)

Also need `Cc1nnc(N2C(=O)c3cccc4cccc(c34)C2=O)s1` , thanks.
> 195 µM (not active)

Also need `Cc1csc(NC(=O)CSc2ccc(-c3ccccc3)nn2)n1` , thanks.
> 195 µM (not active)

Also need COc1ccc(C(=O)C2CCCN(Cc3ccc(NC(C)=O)cc3)C2)cc1OC (stereo unspecified) , thanks.
60.1 µM (active)

Also need CCC(=O)N1C(C(=O)N2CCCC2)CSC1c1ccc(OC)cc1 (stereo unspecified) , thanks.
32.2 µM (active)

Also need `CCN(Cc1ccc2c(c1)OCO2)C(=O)/C=C/c1cccc(Br)c1` , thanks.
> 195 µM (not active)

Also need Cc1cc(=O)[nH]c2c1c(=O)[nH]n2C1CC(C)N(C)CC1C (stereo unspecified) , thanks.
> 195 µM (not active)

Also need COc1ccc(C(NC(=O)c2ccc(O)nc2)C(=O)Nc2ccc(C(C)C)cc2)cc1 (stereo unspecified) , thanks.
> 195 µM (not active)

Also need `O=C(Nc1ccc(-n2ccnc2P(=O)(O)c2ccccc2)cc1)c1ccccc1Cl` , thanks.
> 195 µM (not active)

Recorded values, source ChEMBL document CHEMBL1201862.
